# system: T1, human SIRPA_V3 (human, UniProt P78324 31-504)
# T1 construct: FLAG-tagged (pFLAG V5-DEST), on 293α cells; also called human SIRPA Variant 3
# T1 sequence (P78324 other isoform, or with tags, fused parts or gaps limits assumed): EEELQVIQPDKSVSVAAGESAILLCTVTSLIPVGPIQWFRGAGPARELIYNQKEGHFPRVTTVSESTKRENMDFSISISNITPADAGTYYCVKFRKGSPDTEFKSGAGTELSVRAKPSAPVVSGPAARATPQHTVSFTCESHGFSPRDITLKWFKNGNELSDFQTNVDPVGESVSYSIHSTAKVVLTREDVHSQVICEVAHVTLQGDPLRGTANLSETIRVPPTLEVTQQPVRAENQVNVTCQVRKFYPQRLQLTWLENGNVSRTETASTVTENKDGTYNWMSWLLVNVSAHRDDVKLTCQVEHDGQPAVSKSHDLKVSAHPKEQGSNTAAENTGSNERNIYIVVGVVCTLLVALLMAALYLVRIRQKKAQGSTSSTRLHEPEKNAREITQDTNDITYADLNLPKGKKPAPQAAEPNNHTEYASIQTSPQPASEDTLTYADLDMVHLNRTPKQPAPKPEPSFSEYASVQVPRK
# assay-details: cell-based ELISA on 293α cells expressing FLAG-tagged SIRPA_V3; Abs 490 normalized to FLAG tag [iii]
endpoint: EC50 (read off the curve)

Take a look at these entries with their results.
| binder | EC50 (read off the curve) |
| --- | --- |
| humanized anti-SIRPA antibody hD13_H2L2 (antibody, human IgG4 S228P, kappa, F234A L235A, V domains shown, hH2 heavy chain (IgG4proFALA) and hL2 kappa light chain; also called H2L2 antibody) VH: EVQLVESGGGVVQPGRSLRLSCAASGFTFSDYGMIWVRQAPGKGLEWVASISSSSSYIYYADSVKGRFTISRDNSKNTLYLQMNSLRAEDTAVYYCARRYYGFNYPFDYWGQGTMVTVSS VL: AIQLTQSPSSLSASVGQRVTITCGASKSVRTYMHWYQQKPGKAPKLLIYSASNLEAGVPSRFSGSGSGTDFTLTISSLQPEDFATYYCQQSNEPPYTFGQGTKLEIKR | ~0.04 µg/mL |
| human chimeric anti-SIRPA antibody cD13 (antibody, human IgG4 S228P, kappa, F234A L235A, V domains shown, Human IgG4proFALA heavy chain, human kappa light chain; also called cD13 (IgG4pf); human chimeric antibody D13) VH: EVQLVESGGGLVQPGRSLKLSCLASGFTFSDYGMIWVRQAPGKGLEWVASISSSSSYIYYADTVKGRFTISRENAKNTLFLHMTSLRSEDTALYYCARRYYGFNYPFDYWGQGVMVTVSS VL: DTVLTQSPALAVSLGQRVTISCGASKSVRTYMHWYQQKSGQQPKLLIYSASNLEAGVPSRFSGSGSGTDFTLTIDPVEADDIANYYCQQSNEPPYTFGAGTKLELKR | ~0.04 µg/mL |
| humanized anti-SIRPA antibody hD13_H1L4 (antibody, human IgG4 S228P, kappa, F234A L235A, V domains shown, hH1 heavy chain (IgG4proFALA) and hL4 kappa light chain; also called hD13_HIL4; hD13_HIL4h) VH: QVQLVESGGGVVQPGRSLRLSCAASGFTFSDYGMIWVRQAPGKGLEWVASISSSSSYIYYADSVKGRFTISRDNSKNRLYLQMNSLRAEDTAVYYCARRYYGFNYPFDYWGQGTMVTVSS VL: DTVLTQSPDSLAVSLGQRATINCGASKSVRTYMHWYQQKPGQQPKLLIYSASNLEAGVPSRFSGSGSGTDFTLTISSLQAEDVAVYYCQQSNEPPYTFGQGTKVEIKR | ~0.03 µg/mL |
| humanized anti-SIRPA antibody hD13_H1L3 (antibody, human IgG4 S228P, kappa, F234A L235A, V domains shown, hH1 heavy chain (IgG4proFALA) and hL3 kappa light chain; also called hD13_HIL3; HIL3 antibody) VH: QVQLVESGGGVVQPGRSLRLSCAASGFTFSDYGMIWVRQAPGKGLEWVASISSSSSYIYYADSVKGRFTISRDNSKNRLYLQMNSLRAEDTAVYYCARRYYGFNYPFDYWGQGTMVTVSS VL: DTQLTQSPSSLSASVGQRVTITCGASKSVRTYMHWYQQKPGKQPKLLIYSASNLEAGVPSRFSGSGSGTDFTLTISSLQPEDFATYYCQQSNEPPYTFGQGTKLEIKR | ~0.03 µg/mL |

Kindly review the next binder as well.
In: Supply measured EC50 (read off the curve) of humanized anti-SIRPA antibody hD13_H2L3 (antibody, human IgG4 S228P, kappa, F234A L235A, V domains shown, hH2 heavy chain (IgG4proFALA) and hL3 kappa light chain; also called H2L3 antibody) VH: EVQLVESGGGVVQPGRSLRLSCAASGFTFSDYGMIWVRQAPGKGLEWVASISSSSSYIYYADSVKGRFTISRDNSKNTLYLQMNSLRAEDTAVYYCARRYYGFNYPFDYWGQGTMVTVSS VL: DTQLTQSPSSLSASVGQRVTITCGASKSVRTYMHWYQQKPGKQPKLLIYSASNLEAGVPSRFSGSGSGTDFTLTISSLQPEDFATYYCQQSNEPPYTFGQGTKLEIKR in your reply.
Out: ~0.04 µg/mL

The origin of these recorded values is patent US20260098102A1.
